- Target system: T1, human C1s (human, UniProt P09871 16-688)
- T1 construct: Analyte in the Biacore assays; also called hC1s; serum-derived human C1s (CompTech)
- T1 sequence: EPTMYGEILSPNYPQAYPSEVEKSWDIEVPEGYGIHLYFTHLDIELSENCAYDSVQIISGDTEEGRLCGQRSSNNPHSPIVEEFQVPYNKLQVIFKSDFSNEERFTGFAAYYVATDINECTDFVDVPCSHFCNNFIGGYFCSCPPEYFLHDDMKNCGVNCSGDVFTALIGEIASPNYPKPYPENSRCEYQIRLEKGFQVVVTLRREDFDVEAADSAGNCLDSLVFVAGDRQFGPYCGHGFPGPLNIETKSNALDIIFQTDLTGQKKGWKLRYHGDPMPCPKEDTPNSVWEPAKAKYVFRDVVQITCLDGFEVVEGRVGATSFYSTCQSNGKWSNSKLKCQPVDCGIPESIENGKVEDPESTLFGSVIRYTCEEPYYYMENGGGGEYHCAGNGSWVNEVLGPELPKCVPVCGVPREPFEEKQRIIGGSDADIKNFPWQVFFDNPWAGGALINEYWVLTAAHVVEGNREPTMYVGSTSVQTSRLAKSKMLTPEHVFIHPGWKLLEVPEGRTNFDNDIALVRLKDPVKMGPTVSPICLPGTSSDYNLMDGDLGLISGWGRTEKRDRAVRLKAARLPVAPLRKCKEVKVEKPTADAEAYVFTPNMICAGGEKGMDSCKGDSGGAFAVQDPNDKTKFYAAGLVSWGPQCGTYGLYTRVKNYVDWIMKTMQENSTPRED
- Assay name: SPR (Biacore T200, 37C), Ab captured on protein A/G; pH 5.8, 3 uM Ca
Experimental endpoint: koff

// below: answered binders
[[record]]
binder = "C1_IPN92H0288-SG4GK/IPN93L0212-SK1 (antibody, human IgG4 S228P, kappa, name in Kabat numbering, V domains shown, VL substitutions from IPN009VK3, Kabat numbering; also called IPN92H0288/IPN93L0212) VH: EVMLVESGGGLVKPGGSLRLSCAASGFTFSNYAMSWVRQAPGKGLEWVATISSGGSHTYELDSVDGRFTISRDNSKDTLYLQMNSLRAEDTALYYCARLFTKHAMDYWGQGTLVTVSS VL: QIVLTQSPATLSLSPGERATLSCTASSEVSESRLHWYQQKPGKAPKLWIYSTSNLASGVPSRFSGSGSGTDYTLTISSLQPEDFATYYCHQYYRLHPITFGQGTKLEIKR"
result = "0.00533 s⁻¹"

[[record]]
binder = "C1_IPN92H0091-SG4GK/IPN93L0024-SK1 (antibody, human IgG4 S228P, kappa, name in Kabat numbering, V domains shown, Substitutions from IPN009VH2, Kabat numbering; also called IPN92H0091/IPN93L0024) VH: EVMLVESGGGLVKPGGSLRLSCAASGFTFSNYAKSWVRQAPGKGLEWVATISSGGSHTYYLDSVKGRFTISRDNSKDTLYLQMNSLRAEDTALYYCARLFTGHAMDYWGQGTLVTVSS VL: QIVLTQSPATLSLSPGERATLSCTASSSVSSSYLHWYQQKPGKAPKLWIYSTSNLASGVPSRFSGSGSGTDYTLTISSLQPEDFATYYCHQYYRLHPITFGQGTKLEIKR"
result = "2.67 s⁻¹"


Below are some binders; for each one, tell me its koff.
1. C1_IPN92H0232-SG4GK/IPN93L0024-SK1 (antibody, human IgG4 S228P, kappa, name in Kabat numbering, V domains shown, Substitutions from IPN009VH2, Kabat numbering; also called IPN92H0232/IPN93L0024) VH: EVMLVESGGGLVKPGGSLRLSCAASGFTFSNYAMSWVRQAPGKGLEWVATISSGGSHTYYLDSVKGRFTISRDNSKDTLYLQMNSLRAEDTALYYCARLFTRHAMDYWGQGTLVTVSS VL: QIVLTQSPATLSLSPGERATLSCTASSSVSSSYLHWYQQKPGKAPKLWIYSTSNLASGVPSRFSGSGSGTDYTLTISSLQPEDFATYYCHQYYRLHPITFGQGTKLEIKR
2. C1_IPN92H0079-SG4GK/IPN93L0024-SK1 (antibody, human IgG4 S228P, kappa, name in Kabat numbering, V domains shown, Substitutions from IPN009VH2, Kabat numbering; also called IPN92H0079/IPN93L0024) VH: EVMLVESGGGLVKPGGSLRLSCAASGFTFSNKAMSWVRQAPGKGLEWVATISSGGSHTYYLDSVKGRFTISRDNSKDTLYLQMNSLRAEDTALYYCARLFTGHAMDYWGQGTLVTVSS VL: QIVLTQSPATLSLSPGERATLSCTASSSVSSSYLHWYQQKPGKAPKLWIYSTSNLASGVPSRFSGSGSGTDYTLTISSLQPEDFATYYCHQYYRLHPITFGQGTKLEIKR
3. C1_IPN92H0231-SG4GK/IPN93L0024-SK1 (antibody, human IgG4 S228P, kappa, name in Kabat numbering, V domains shown, Substitutions from IPN009VH2, Kabat numbering; also called IPN92H0231/IPN93L0024) VH: EVMLVESGGGLVKPGGSLRLSCAASGFTFSNYAMSWVRQAPGKGLEWVATISSGGSHTYYLDSVKGRFTISRDNSKDTLYLQMNSLRAEDTALYYCARLFTKHAMDYWGQGTLVTVSS VL: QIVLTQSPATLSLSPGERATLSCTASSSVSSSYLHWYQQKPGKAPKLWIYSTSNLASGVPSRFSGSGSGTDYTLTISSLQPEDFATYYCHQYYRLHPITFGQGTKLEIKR
4. C1_IPN92H0033-SG4GK/IPN93L0072-SK1 (antibody, human IgG4 S228P, kappa, name in Kabat numbering, V domains shown, VL substitutions from IPN009VK3, Kabat numbering; also called IPN92H0033/IPN93L0072) VH: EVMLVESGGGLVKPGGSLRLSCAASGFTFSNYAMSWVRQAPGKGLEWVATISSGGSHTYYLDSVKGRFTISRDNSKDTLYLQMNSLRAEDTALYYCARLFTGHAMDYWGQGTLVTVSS VL: QIVLTQSPATLSLSPGERATLSCTASSSVKSSYLHWYQQKPGKAPKLWIYSTSNLASGVPSRFSGSGSGTDYTLTISSLQPEDFATYYCHQYYRLHPITFGQGTKLEIKR
5. C1_IPN92H0253-SG4GK/IPN93L0024-SK1 (antibody, human IgG4 S228P, kappa, name in Kabat numbering, V domains shown, Substitutions from IPN009VH2, Kabat numbering; also called IPN92H0253/IPN93L0024) VH: EVMLVESGGGLVKPGGSLRLSCAASGFTFSNYAMSWVRQAPGKGLEWVATISSGGSHTYYLDSVKGRFTISRDNSKDTLYLQMNSLRAEDTALYYCARLFTGHAMKYWGQGTLVTVSS VL: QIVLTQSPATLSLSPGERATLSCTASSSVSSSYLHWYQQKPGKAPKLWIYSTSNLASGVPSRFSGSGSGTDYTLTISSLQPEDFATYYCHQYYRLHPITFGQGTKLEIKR
6. C1_IPN92H0061-SG4GK/IPN93L0024-SK1 (antibody, human IgG4 S228P, kappa, name in Kabat numbering, V domains shown, Substitutions from IPN009VH2, Kabat numbering; also called IPN92H0061/IPN93L0024) VH: EVMLVESGGGLVKPGGSLRLSCAASGFTKSNYAMSWVRQAPGKGLEWVATISSGGSHTYYLDSVKGRFTISRDNSKDTLYLQMNSLRAEDTALYYCARLFTGHAMDYWGQGTLVTVSS VL: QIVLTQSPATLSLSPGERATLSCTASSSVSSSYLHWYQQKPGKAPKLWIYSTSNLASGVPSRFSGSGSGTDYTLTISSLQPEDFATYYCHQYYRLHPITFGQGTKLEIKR
7. C1_IPN92H0162-SG4GK/IPN93L0024-SK1 (antibody, human IgG4 S228P, kappa, name in Kabat numbering, V domains shown, Substitutions from IPN009VH2, Kabat numbering; also called IPN92H0162/IPN93L0024) VH: EVMLVESGGGLVKPGGSLRLSCAASGFTFSNYAMSWVRQAPGKGLEWVATISSGGSHTYKLDSVKGRFTISRDNSKDTLYLQMNSLRAEDTALYYCARLFTGHAMDYWGQGTLVTVSS VL: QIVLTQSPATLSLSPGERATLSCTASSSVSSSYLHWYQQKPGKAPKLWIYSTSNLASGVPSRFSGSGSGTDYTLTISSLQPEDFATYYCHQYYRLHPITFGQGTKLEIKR
8. C1_IPN92H0165-SG4GK/IPN93L0024-SK1 (antibody, human IgG4 S228P, kappa, name in Kabat numbering, V domains shown, Substitutions from IPN009VH2, Kabat numbering; also called IPN92H0165/IPN93L0024) VH: EVMLVESGGGLVKPGGSLRLSCAASGFTFSNYAMSWVRQAPGKGLEWVATISSGGSHTYYDDSVKGRFTISRDNSKDTLYLQMNSLRAEDTALYYCARLFTGHAMDYWGQGTLVTVSS VL: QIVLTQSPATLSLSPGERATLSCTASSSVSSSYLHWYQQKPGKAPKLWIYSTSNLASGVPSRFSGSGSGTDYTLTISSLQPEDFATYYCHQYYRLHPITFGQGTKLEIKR

Result:
0.0173 s⁻¹
0.0052 s⁻¹
0.00674 s⁻¹
0.00553 s⁻¹
0.0147 s⁻¹
0.00344 s⁻¹
0.00784 s⁻¹
0.715 s⁻¹
